Item-by-item account of IC50
Target: NAMPT (Homo sapiens)
Construct: His tag; host or cells: E. coli
Sequence (P43490 whole entry): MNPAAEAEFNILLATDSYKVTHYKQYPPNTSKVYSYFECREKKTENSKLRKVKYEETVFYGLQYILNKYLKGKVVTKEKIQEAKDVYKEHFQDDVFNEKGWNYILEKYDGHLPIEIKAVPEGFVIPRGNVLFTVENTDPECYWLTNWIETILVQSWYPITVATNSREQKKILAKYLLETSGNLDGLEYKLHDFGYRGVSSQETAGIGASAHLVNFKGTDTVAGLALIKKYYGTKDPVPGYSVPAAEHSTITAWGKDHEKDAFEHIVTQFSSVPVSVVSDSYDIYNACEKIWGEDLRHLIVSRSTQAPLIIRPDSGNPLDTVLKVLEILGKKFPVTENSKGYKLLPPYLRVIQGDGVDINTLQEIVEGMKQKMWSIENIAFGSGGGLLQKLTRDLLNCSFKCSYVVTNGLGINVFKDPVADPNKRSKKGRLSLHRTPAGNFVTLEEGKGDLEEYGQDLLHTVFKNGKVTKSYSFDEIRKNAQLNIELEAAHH
Test: Biochemical inhibition assay: NAMPT enzymatic reaction, NMN quantified by mass spectrometry
Conditions: NAMPT enzymatic reaction; read-out: Biochem IC50
The reply should contain only the number, in nM.

Guide cases for IC50, answers given:
# MOLECULAR_STRING, EXPERIMENTAL_SYSTEM, IC50 [nM]
data = [
    ("Cc1ccc(F)c(S(=O)(=O)c2ccc(CNC(=O)c3cnc4nccn4c3)cc2)c1", "NAMPT (Homo sapiens)", 6.8),
    ("CCOc1cccc(S(=O)(=O)c2ccc(CNC(=O)c3cc4ccncc4s3)cc2)c1F", "NAMPT (Homo sapiens)", 3.7),
    ("O=C(NCc1ccc(S(=O)(=O)c2cccc(F)c2Cl)cc1)c1cc2ccncc2o1", "NAMPT (Homo sapiens)", 17),
    ("Cc1ccc(S(=O)(=O)c2ccc(CNC(=O)c3cc4ccncc4s3)cc2)cc1", "NAMPT (Homo sapiens)", 5),
    ("COc1ccccc1NS(=O)(=O)c1ccc(CNC(=O)c2cc3cnccc3[nH]2)cc1", "NAMPT (Homo sapiens)", 89),
]

Dear colleague, I am looking for the recorded IC50 of the following compound: `Cc1ccc(S(=O)(=O)c2ccc(CNC(=O)c3ccc4nccn4c3)cc2)cc1C`
11.1

Dear colleague, I am looking for the recorded IC50 of the following compound: `COc1ccc(S(=O)(=O)c2ccc(CNC(=O)c3ccc4nccn4c3)cc2)cc1OC`
12

Dear colleague, I am looking for the recorded IC50 of the following compound: `O=C(NCc1ccc(S(=O)(=O)c2ccccc2)cc1)c1ccc2nncn2c1`
301

Attribution: patent US12336981B2
